test system: SEM cells; assay: cell viability relative to DMSO control; higher = less cytotoxic; settings: HPLM + 10% dialyzed FBS; 48 h; 1.71 µM
MEASURED METRIC: cell viability (%)
Expressed in %, but write only the number.

Guide cases for cell viability, answers given:
Tested on SEM cells: `CCC(=O)O[C@@]1([C@H](C)C[C@H]2[C@@H]3C[C@H](F)\C4=C\C(=O)\C=C/[C@]4(C)[C@@]3(F)[C@@H](O)C[C@]12C)C(=O)SCF` . Observed cell viability: 79.4

Tested on SEM cells: `COc1ccc(CCC(=O)Nc2nc3ccc(Cl)cc3s2)cc1OC` . Observed cell viability: 112

Continuing:
Tested on SEM cells: `C[C@H]1[C@@H](CC(C[C@H]2O[C@@H]3O[C@]4(C)CC[C@H]5[C@H](C)CC[C@@H]([C@H]2C)[C@@]35OO4)C[S+](=O)([O-])c2ccc(COC(=O)N(C)C)cc2)O[C@@H]2O[C@]3(C)CC[C@H]4[C@H](C)CC[C@@H]1[C@@]24OO3` . Observed cell viability: 5.9

Tested on SEM cells: `CCOC(=O)c1ccc(C#Cc2ccc3c(c2)C(C)(C)CCS3)nc1` . Observed cell viability: 118

Tested on SEM cells: `Cc1cc(SCc2sc(-c3ccc(C(F)(F)F)c(F)c3)nc2C)ccc1OCC(=O)O` . Observed cell viability: 111

Tested on SEM cells: `CC(C)(O)CNc1nc(Nc2ccnc(C(F)(F)F)c2)nc(-c2cccc(C(F)(F)F)n2)n1` . Observed cell viability: 93.5

Tested on SEM cells: O=C(C1CCCCC1)N1CC(=O)N2CCc3ccccc3C2C1 (configuration not stated) . Observed cell viability: 86.1

====

tested on: NOMO1; assay: cell viability relative to DMSO control; higher = less cytotoxic; details: RPMI 5 mM glucose + 10% FBS; 48 h; 0.000781 µM
Listed here: items and their measured cell viability.
Expressed in %, but write only the number.

Guide cases for cell viability, answers given:
Tested on NOMO1: `CCCn1c(=O)c2[nH]c(C34CC5CC3C[C@@H](C5)C4)nc2n(CCC)c1=O` . Observed cell viability: 90.5

Tested on NOMO1: CC(=O)SCC(Cc1ccccc1)C(=O)NCC(=O)OCc1ccccc1 (stereo not given) . Observed cell viability: 81.7

Tested on NOMO1: `c1cc(OCCN2CCCCC2)cc(-c2n[nH]c3ccc(-c4nc[nH]n4)cc23)c1` . Observed cell viability: 115

Tested on NOMO1: `c1ccc2c(-c3cnn4cc(-c5ccc(N6CCNCC6)cc5)cnc34)ccnc2c1` . Observed cell viability: 93.8

Tested on NOMO1: `CC(Oc1ccc(O)cc1)(P(=O)(O)O)P(=O)(O)O` . Observed cell viability: 91.6

Tested on NOMO1: `CNC(=O)c1c(F)cccc1Nc1nc(Nc2cc3c(cc2OC)CCN3C(=O)CN(C)C)nc2[nH]ccc12` . Observed cell viability: 110

Tested on NOMO1: `CC1(C)OC/2=C(\[C@H](NCC3=CC=CC=C3)[C@@H]1O)C(=O)C4=CC=CC=C4C2=O` . Observed cell viability: 89.7

Tested on NOMO1: `CCOc1cc2c(c(F)c1OCC)C(=N)N(CC(=O)c1cc(N3CCOCC3)c(OC)c(C(C)(C)C)c1)C2` . Observed cell viability: 109

Continuing:
Tested on NOMO1: O=C1[O][Pt]2([NH]C3CCCCC3[NH]2)[O]C1=O (stereo not given) . Observed cell viability: 108

Tested on NOMO1: `O=C1c2cccc(O)c2C(=O)c2c(O)cc(CO)cc21` . Observed cell viability: 96.8

Tested on NOMO1: `COc1ccc(CCC(=O)Nc2nc3ccc(Cl)cc3s2)cc1OC` . Observed cell viability: 107

Tested on NOMO1: `COc1cc2nc(-c3ccc(N4CCN(C)CC4)cc3)nc(NCCN3CCOCC3)c2cc1OC` . Observed cell viability: 102

Tested on NOMO1: `CCCn1c(=O)c2[nH]c(-c3cnn(Cc4cccc(C(F)(F)F)c4)c3)nc2n(CC)c1=O` . Observed cell viability: 92.7

====

Listed here: items and their measured cell viability.
test system: P12-Ichikawa; assay: cell viability relative to DMSO control; higher = less cytotoxic; settings: HPLM + 10% dialyzed FBS; 48 h; 5.12 µM
Expressed in %, but write only the number.

Lookup result for `Cc1ccc(F)c(NC(=O)Nc2ccc(-c3cccc4[nH]nc(N)c34)cc2)c1` ; measured cell viability: 116

Continuing:
Lookup result for `CNC(=O)c1c(F)cccc1Nc1nc(Nc2cc3c(cc2OC)CCN3C(=O)CN(C)C)nc2[nH]ccc12` ; measured cell viability: 81.5

Lookup result for CN1[C@@H]2CC(O)C[C@H]1[C@@H]1O[C@@H]12 (stereo not given in full) ; measured cell viability: 114

Lookup result for `COc1ccc(Cn2ccc3ccc(C(=O)NO)cc32)cc1` ; measured cell viability: 113

Lookup result for `COc1cc(/C=C/C(=O)CC(=O)/C=C/c2ccc(O)c(OC)c2)ccc1O` ; measured cell viability: 96.4

====

tested on: NOMO1; assay: cell viability relative to DMSO control; higher = less cytotoxic; settings: RPMI 5 mM glucose + 10% dialyzed FBS; 48 h; 0.0632 µM
MEASURED METRIC: cell viability (%)
Expressed in %, but write only the number.

Guide cases for cell viability, answers given:
Lookup result for `CCOc1cc2c(c(F)c1OCC)C(=N)N(CC(=O)c1cc(N3CCOCC3)c(OC)c(C(C)(C)C)c1)C2` ; measured cell viability: 131

Lookup result for `COC(=O)N[C@H](C(=O)N[C@@H](Cc1ccccc1)[C@@H](O)CN(Cc1ccc(-c2ccccn2)cc1)NC(=O)[C@@H](NC(=O)OC)C(C)(C)C)C(C)(C)C` ; measured cell viability: 113

Lookup result for `N#Cc1c(C2CCNCC2)cc(-c2c(O)cccc2OCC2CC2)nc1N` ; measured cell viability: 111

Continuing:
Lookup result for `c1cc(-c2sc(-c3ccncc3)c(-c3ccncc3)c2-c2ccncc2)ccn1` ; measured cell viability: 117

====

system: SEM cells; experiment: cell viability relative to DMSO control; higher = less cytotoxic; details: RPMI 5 mM glucose + 10% dialyzed FBS; 48 h; 0.0632 µM
Listed here: items and their measured cell viability.
Expressed in %, but write only the number.

Guide cases for cell viability, answers given:
Lookup result for `CC1(C)OC/2=C(\[C@H](NCC3=CC=CC=C3)[C@@H]1O)C(=O)C4=CC=CC=C4C2=O` ; measured cell viability: 94.4

Lookup result for `CNC(=O)c1c(F)cccc1Nc1nc(Nc2cc3c(cc2OC)CCN3C(=O)CN(C)C)nc2[nH]ccc12` ; measured cell viability: 94.7

Lookup result for `CN[C@@H](C)C(=O)N[C@H]1CCCC[C@H]2CC[C@@H](C(=O)N[C@@H](c3ccccc3)c3cn(CCCCc4ccc(CCCCn5cc([C@@H](NC(=O)[C@@H]6CC[C@@H]7CCCC[C@H](NC(=O)[C@H](C)NC)C(=O)N76)c6ccccc6)nn5)cc4)nn3)N2C1=O` ; measured cell viability: 99.4

Lookup result for `CC(C)[C@@H](N(CCCN)C(=O)C1=CC=C(C)C=C1)C/2=C(\CC3=CC=CC=C3)C(=O)C4=C(O2)C=C(Cl)C=C4` ; measured cell viability: 19.4

Lookup result for `CO[C@@H]1[C@H](N(C)C(=O)c2ccccc2)C[C@H]2O[C@]1(C)n1c3ccccc3c3c4c(c5c6ccccc6n2c5c31)C(=O)NC4` ; measured cell viability: 107

# input for lookup
Lookup result for `CC(C)c1ccc2oc3nc(N)c(C(=O)O)cc3c(=O)c2c1` ; measured cell viability: 141

====

tested on: NOMO1; assay: cell viability relative to DMSO control; higher = less cytotoxic; settings: RPMI 5 mM glucose + 10% dialyzed FBS; 48 h; 0.0211 µM
MEASURED METRIC: cell viability (%)
Expressed in %, but write only the number.

Lookup result for `OC1=C(C=CC=C1)C2=CC=C(C=C2)C3=CSC4=C3C(=C(/C#N)C(=O)N4)/O` ; measured cell viability: 139

Continuing:
Lookup result for `CN(C)[C@H]\1[C@@H]2[C@@H](O)[C@@H]\3C(=C)C4=C(C(=CC=C4)O)C(=O)C3=C(\O)[C@@]2(O)C(=O)\C(=C1O)C(N)=O` ; measured cell viability: 121

Lookup result for O=C1[O][Pt]2([NH]C3CCCCC3[NH]2)[O]C1=O (stereo not given) ; measured cell viability: 110

Lookup result for `CN(C)c1ccc(C(=O)NCCCCCCC(=O)NO)cc1` ; measured cell viability: 106

Lookup result for `CCC(CC)[C@H](NC(C)=O)[C@@H]1[C@H](O)[C@@H](C(=O)O)C[C@H]1NC(=N)N` ; measured cell viability: 80.4

====

Listed here: items and their measured cell viability.
test system: NOMO1; test: cell viability relative to DMSO control; higher = less cytotoxic; conditions: HPLM + 10% dialyzed FBS; 48 h; 0.19 µM

Tested on NOMO1: `c1cc(-c2sc(-c3ccncc3)c(-c3ccncc3)c2-c2ccncc2)ccn1` . Observed cell viability: 129%

Tested on NOMO1: COc1ccc(-c2nc3cc(C4=NNC(=O)CC4C)ccc3[nH]2)cc1 (stereo not given) . Observed cell viability: 119%

Tested on NOMO1: `O=C1c2cccc(O)c2C(=O)c2c(O)cc(CO)cc21` . Observed cell viability: 81.8%

Tested on NOMO1: `CCOC(=O)c1ncn2c1CN(C)C(=O)c1cc(F)ccc1-2` . Observed cell viability: 120%

Tested on NOMO1: `CC(Oc1ccc(O)cc1)(P(=O)(O)O)P(=O)(O)O` . Observed cell viability: 93.5%
